meta.source: the supplement of paper PMC10065799

system: AncSZ; experiment: phosphorylation enrichment, bacterial display (enrichment ratio); higher = better substrate or ligand; peptides without Tyr show the background;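 note: 11-residue human phosphosite peptides and single-mutation variants displayed on the E. coli surface, counted by deep sequencing, each peptide's frequency after selection divided by its frequency in the unselected input library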;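 note: frequency after pTyr selection over input frequency; kinase dosed for 20-30% of maximal phosphorylation in three min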
Item-by-item account of phosphorylation enrichment
Write no unit; give the number alone.

[[record]]
record_sequence = "DKGTLYIAEQI [PLBD1_Y375_V377A]"
reported_metric = "phosphorylation enrichment"
recorded_measurement = 0.763

[[record]]
record_sequence = "RPFVFYFSFLL [PTEN_Y177_R173P_YF]"
reported_metric = "phosphorylation enrichment"
recorded_measurement = 1.29

[[record]]
record_sequence = "HELYVYKSDEN [DOCK3_Y548_C550S]"
reported_metric = "phosphorylation enrichment"
recorded_measurement = 1.7

[[record]]
record_sequence = "RGRSTYYWPSP [GAGE12J_Y9_R13S]"
reported_metric = "phosphorylation enrichment"
recorded_measurement = 2.12

[[record]]
record_sequence = "RSFSPYDFQPC [TNS1_Y796_YF]"
reported_metric = "phosphorylation enrichment"
recorded_measurement = 1.5


GET /values?item= GGQVFHNSEYG [FLT4_Y1333_Y1333H] &system= AncSZ returns phosphorylation enrichment: 0.581

GET /values?item= RFLRGYRQDAF [HLA-A_Y137_YF] &system= AncSZ returns phosphorylation enrichment: 0.644

GET /values?item= PRPAGYPSTVS [CACNA1C_Y1832] &system= AncSZ returns phosphorylation enrichment: 0.458

GET /values?item= YTHSDYQYGQR [PKP2_Y166_S169G] &system= AncSZ returns phosphorylation enrichment: 0.867

GET /values?item= SPDMLYQFLKQ [RPAP3_Y567_YF] &system= AncSZ returns phosphorylation enrichment: 0.997

GET /values?item= DFEGLYQEGGG [TMEM159_Y159_E154D] &system= AncSZ returns phosphorylation enrichment: 1.23

GET /values?item= FKPGFYNLKEK [LAMA1_Y490_C485Y_YF] &system= AncSZ returns phosphorylation enrichment: 0.601

GET /values?item= GPGLVYGVANK [FLNB_Y1833] &system= AncSZ returns phosphorylation enrichment: 0.531

GET /values?item= EATKVYLDDPT [G6PD_Y322_G321V] &system= AncSZ returns phosphorylation enrichment: 0.852

GET /values?item= LLDGEYFTLQI [TP53_Y327_P322L] &system= AncSZ returns phosphorylation enrichment: 5.89

GET /values?item= LGGAMYFLEAE [PKHD1_Y452_YF] &system= AncSZ returns phosphorylation enrichment: 1.53
